The reported numbers originate from patent US20230381321A1.

test system: acute myeloid leukemia cells (MOLM-13); test: In vitro potency (CellTiter-Glo, 96 h) on MOLM-13; assay type: cell-based; settings: Homo sapiens, MOLM-13, 96 h, CPT free drugs; CellTiter-Glo after 96 h exposure; read-out: MOLM-13 IC50
Catalogue of log10 of IC50 readings, one per entry.
Units before log transform: µM; reported quantity: IC50; transform: log10.

| COMPOUND | VALUE MEASURED |
| --- | --- |
| CC[C@@]1(O)C(=O)OCc2c1cc1n(c2=O)Cc2c-1nc1cc3c(cc1c2CN(C)CCCN)OCO3 [Compound 8] | -1.33 |
| CC[C@@]1(O)C(=O)OCc2c1cc1n(c2=O)Cc2c-1nc1cc(F)c(C)c(-c3ccsc3)c1c2CN [Compound 6g] | -2.22 |
| CC[C@@]1(O)C(=O)OCc2c1cc1n(c2=O)Cc2c-1nc1cc(F)c(F)c(F)c1c2CN [Compound 2ap] | -2.30 |
| CC[C@@]1(O)C(=O)OCc2c1cc1n(c2=O)Cc2c-1nc1cc(F)c(C)c(C3=CCOCC3)c1c2CN [Compound 6h] | -1.51 |
| C=C(C)c1ccc2nc3c(c(CN)c2c1)Cn1c-3cc2c(c1=O)COC(=O)[C@]2(O)CC [Compound 33a] | -0.59 |

QUERY: Which value of log10 of IC50 has been reported for CC[C@@]1(O)C(=O)OCc2c1cc1n(c2=O)Cc2c-1nc1cc(F)c(C)c(C3=CCN(C(C)=O)CC3)c1c2CN [Compound 6k] in the records?
RESULT: -1.89

QUERY: Thanks! And CC[C@@]1(O)C(=O)OCc2c1cc1n(c2=O)Cc2c-1nc1cc(F)c(C)c3c1c2[C@@H](NC(=O)CN)CC3 [Compound 13b] ?
RESULT: -1.64

QUERY: Request: CC[C@@]1(O)C(=O)OCc2c1cc1n(c2=O)Cc2c-1nc1ccc(SC)c(F)c1c2CN [Compound 2au]
RESULT: -1.40

QUERY: // same read-out, input: CC[C@@]1(O)C(=O)OCc2c1cc1n(c2=O)Cc2c-1nc1cc3c(cc1c2CN)CCS3 [Compound 2ar]
RESULT: -0.59

QUERY: For CC[C@@]1(O)C(=O)OCc2c1cc1n(c2=O)Cc2c-1nc1cc(F)c(C)c(C3=CCN(C)CC3)c1c2CN [Compound 6l] then?
RESULT: -1.80

====

system: renal carcinoma cells (786-O); test: In vitro potency (CellTiter-Glo, 96 h) on 786-O; type: cell-based; details: Homo sapiens, 786-0, 96 h, read-out: 786-O IC50
OUTCOME MEASURE: IC50
Reply with a number, then the unit it belongs to.

Look over these answered cases.
| COMPOUND | IC50 |
| --- | --- |
| CC[C@@]1(O)C(=O)OCc2c1cc1n(c2=O)Cc2c-1nc1cc3c(cc1c2CNC1CCN(C)CC1)OCO3 [Compound 7w] | 15 nM |
| CC[C@@]1(O)C(=O)OCc2c1cc1n(c2=O)Cc2c-1nc1cc3c(cc1c2CO)CCO3 [Compound 35] | 4 nM |
| CC[C@@]1(O)C(=O)OCc2c1cc1n(c2=O)Cc2c-1nc1cc3c(cc1c2CNC1CCOC1)OCO3 (stereo partly drawn) [Compound 7ah] | 0.8 nM |

QUERY: Lab request: please report IC50 under test system renal carcinoma cells (786-O) for C=C(C)c1c(C)c(F)cc2nc3c(c(CN)c12)Cn1c-3cc2c(c1=O)COC(=O)[C@]2(O)CC [Compound 2al]
RESULT: 4 nM

QUERY: Another compound to look at: CC[C@@]1(O)C(=O)OCc2c1cc1n(c2=O)Cc2c-1nc1cc3c(cc1c2CNC[C@H](O)CN1CCCCC1)OCO3 [Compound 7aa]
RESULT: 131 nM

QUERY: Next compound up: CC[C@@]1(O)C(=O)OCc2c1cc1n(c2=O)Cc2c-1nc1cc3c(cc1c2CNCCCN1CCNCC1)OCO3 [Compound 8d]
RESULT: 15 nM

====

tested on: anaplastic large cell lymphoma cells (Karpas299); test: In vitro potency (CellTiter-Glo, 96 h) on Karpas299; type: cell-based; conditions: Homo sapiens, KARPAS-299, 96 h, CPT free drugs; CellTiter-Glo after 96 h exposure; read-out: Karpas299 IC50
OUTCOME MEASURE: pIC50
Bear in mind: pIC50 is minus log10 of a mol/L concentration; give just that figure.

Worked cases, answers included:
| COMPOUND | pIC50 |
| --- | --- |
| CC[C@@]1(O)C(=O)OCc2c1cc1n(c2=O)Cc2c-1nc1cc(F)c(F)c(F)c1c2CN [Compound 2ap] | 8.30 |
| CC[C@@]1(O)C(=O)OCc2c1cc1n(c2=O)Cc2c-1nc1cc3c(cc1c2CNC(=O)CO)CCO3 [Compound 15c] | 7.66 |

QUERY: Suppose we examine the compound CC[C@@]1(O)C(=O)OCc2c1cc1n(c2=O)Cc2c-1nc1cc(F)c(C)c(C3=CCCC3)c1c2CN [Compound 6c] ; what pIC50 value has been reported?
RESULT: 8.52

QUERY: // next record CC[C@@]1(O)C(=O)OCc2c1cc1n(c2=O)Cc2c-1nc1cc(F)c(C)c(-c3ccc(O)cc3)c1c2CN [Compound 6f]
RESULT: 7.23

====

Test system: anaplastic large cell lymphoma cells (Karpas299)
Assay: In vitro potency (CellTiter-Glo, 96 h) on Karpas299
Format: cell-based
Conditions: Homo sapiens, KARPAS-299, 96 h, read-out: Karpas299 IC50
Experimental: In vitro potency was assessed on multiple cancer cell lines. All cell lines were authenticated by STR profiling at IDEXX Bioresearch and cultured for no more than 2 months after resuscitation. […] After 96 hours, growth inhibition was assessed by CellTiterGlo® (Promega, Madison, WI) and luminescence was measured on a plate reader. Cell viability was determined by CellTiter-Glo staining after 96h exposure to ADC. ND=Not Determined. […]
pIC50: −log10 of the molar value.
Classification field: enter 1.0 for pIC50 values not below 8, 0.0 for values below it.

Known results for compounds:
| COMPOUND | ASSAY TARGET | ASSIGNED LABEL |
| --- | --- | --- |
| C=Cc1c(C)c(F)cc2nc3c(c(CN)c12)Cn1c-3cc2c(c1=O)COC(=O)[C@]2(O)CC [Compound 2am] | anaplastic large cell lymphoma cells (Karpas299) | 1.0 |
| CC[C@@]1(O)C(=O)OCc2c1cc1n(c2=O)Cc2c-1nc1cc3c(cc1c2CNC[C@H](O)CN1CCCCC1)OCO3 [Compound 7aa] | anaplastic large cell lymphoma cells (Karpas299) | 0.0 |
| CC[C@@]1(O)C(=O)OCc2c1cc1n(c2=O)Cc2c-1nc1cc3c(cc1c2CNC(=O)CN)CCO3 [Compound 13] | anaplastic large cell lymphoma cells (Karpas299) | 0.0 |
| CCc1c(C)c(F)cc2nc3c(c(CN)c12)Cn1c-3cc2c(c1=O)COC(=O)[C@]2(O)CC [Compound 10] | anaplastic large cell lymphoma cells (Karpas299) | 0.0 |
| CC[C@@]1(O)C(=O)OCc2c1cc1n(c2=O)Cc2c-1nc1cc3c(cc1c2CN)CCO3 [Compound 2n] | anaplastic large cell lymphoma cells (Karpas299) | 1.0 |
| CC[C@@]1(O)C(=O)OCc2c1cc1n(c2=O)Cc2c-1nc1cc3c(cc1c2CNC[C@@H](O)CN1CCCCC1)OCO3 [Compound 7z] | anaplastic large cell lymphoma cells (Karpas299) | 0.0 |
| CC[C@@]1(O)C(=O)OCc2c1cc1n(c2=O)Cc2c-1nc1cc(F)c(C)c(Cl)c1c2CNC(=O)CN [Compound 13a] | anaplastic large cell lymphoma cells (Karpas299) | 1.0 |
| CC[C@@]1(O)C(=O)OCc2c1cc1n(c2=O)Cc2c-1nc1cc3c(cc1c2CO)CCO3 [Compound 35] | anaplastic large cell lymphoma cells (Karpas299) | 1.0 |
| CC[C@@]1(O)C(=O)OCc2c1cc1n(c2=O)Cc2c-1nc1cc3c(c(Br)c1c2CN)OCO3 [Compound 5c] | anaplastic large cell lymphoma cells (Karpas299) | 1.0 |

Turning now to a further record.
QUERY: # check: pIC50 of CC[C@@]1(O)C(=O)OCc2c1cc1n(c2=O)Cc2c-1nc1cc(F)c(C)c(C=C(C)C)c1c2CN [Compound 6] is greater than or equal to 8
RESULT: 1.0

====

system: Hodgkin's lymphoma cells (L540cy); assay: In vitro potency (CellTiter-Glo, 96 h) on L540cy; type: cell-based; settings: L540cy, 96 h, read-out: L540cy IC50
Binary call on IC50 with cut-off 5 nM: strictly below means Condition met, and equality or higher means Condition not met.

| COMPOUND | ASSIGNED LABEL |
| --- | --- |
| CC[C@@]1(O)C(=O)OCc2c1cc1n(c2=O)Cc2c-1nc1cc(F)c(C)c(Cl)c1c2CNC(C)=O [Compound 12a] | Condition met |
| CC[C@@]1(O)C(=O)OCc2c1cc1n(c2=O)Cc2c-1nc1cc3c(cc1c2CNCCOC)OCO3 [Compound 7ag] | Condition met |
| CC[C@@]1(O)C(=O)OCc2c1cc1n(c2=O)Cc2c-1nc1cc3c(c(Br)c1c2CN)OCO3 [Compound 5c] | Condition met |

QUERY: Threshold test, IC50 < 5 nM: CC[C@@]1(O)C(=O)OCc2c1cc1n(c2=O)Cc2c-1nc1cc(F)c(C)c(Cl)c1c2CNC(=O)CN [Compound 13a]
RESULT: Condition met

QUERY: Could you do the same for CC[C@@]1(O)C(=O)OCc2c1cc1n(c2=O)Cc2c-1nc1cc3c(cc1c2CNCC(O)CN1CCOCC1)OCO3 (stereo partly drawn) [Compound 7i] , please?
RESULT: Condition not met
